Assay Explanation: Fluorescence titration of peptide in solution with MG, 2 mM Ca2+, 650 nm
Format: binding
Condition Details: peptide in solution, 2 mM Ca2+, one-site specific binding; read-out: Kd
Observed Property: Kd

seq_text="DWWDWGNHGYTE [Peptide 12]" test_result="~0.41 nM"

###

Assay Explanation: MG binding of peptide ligands from screening and their derivatives
Design: key: −: no binding; +: weak binding; ++: mild binding; +++: strong binding; ++++: very strong binding
Condition Details: 11 hour incubation with 5 μM MG in PBS buffer (pH 7.4)
Bridges are numbered along the chain shown (N, C = ends). Where no end group is shown, it is not given here. [ ]: non-standard residue; d: D form. pY = N[C@@H](Cc1ccc(OP(=O)(O)O)cc1)C(=O)O
Observed Property: MG binding

substance="DRDGDGDHRKIE (synthetic genetically encoded small illuminant (GESI) malachite green (MG) binding Peptide 3)" test_result=+++
substance="DSDSWGEYFHEE (synthetic genetically encoded small illuminant (GESI) malachite green (MG) binding Peptide 4)" test_result=++
substance="DILDDGDEIQGE (synthetic genetically encoded small illuminant (GESI) malachite green (MG) binding Peptide 1)" test_result=+
substance="2C (CDVYI[pY]GSFKNDYIC; disulfide 1-15 (inferred)) [Peptide 2C]" test_result=++++
